# Test system: MD-MBA-436
# procedure.text: Cell viability assay (CTG assay)
# Format: cell-based, human
# experimental.setup: Homo sapiens, 7th day, @10 μM
property.measured: inhibition at 10 µM

Worked examples, 5 compounds total:
# compound, inhibition at 10 µM
records = [
    ("COc1ncnc(C2CC2)c1-c1nc2c(c(N(Cc3ccc(-c4nc(C(F)(F)F)cn4C)cc3)C(N)=O)n1)CCC2 [Example 12]", "50 to 75%"),
    ("COc1ncnc(C2CC2)c1-c1nc2c(c(OCc3ccc(-c4nc(C(F)(F)F)cn4C)cc3)n1)CCC2 [Example 24]", "75 to 100%"),
    ("COc1ncnc(C2CC2)c1-c1nc(NCc2ccc(-c3nc(C(F)(F)F)cn3C)cc2)c2c(c1C#N)CCC2 [Example 2]", "50 to 75%"),
    ("COc1ncnc(C2CC2)c1-c1nc(NCc2ccc(-c3nc(C(F)(F)F)cn3C)cc2)c2[nH]cnc2n1 [Example 16]", "50 to 75%"),
    ("COc1ncnc(C2CC2)c1-c1nc(NCc2ccc(-c3nc(C(F)(F)F)cn3C)cc2)c2ncn(C3CCCCO3)c2n1 (stereo not drawn) [Example 19]", "75 to 100%"),
]

Consider the record given below.
Bench note: what inhibition at 10 µM did COc1ncnc(C2CC2)c1-c1nc2c(c(NCc3ccc(-c4nc(C(F)(F)F)cn4C)cc3)c1C#N)CCC2 [Example 21] show?
50 to 75%

---

# target.under.test: USP1/UAF1 (Homo sapiens, UniProt O94782)
# Sequence (O94782 whole entry): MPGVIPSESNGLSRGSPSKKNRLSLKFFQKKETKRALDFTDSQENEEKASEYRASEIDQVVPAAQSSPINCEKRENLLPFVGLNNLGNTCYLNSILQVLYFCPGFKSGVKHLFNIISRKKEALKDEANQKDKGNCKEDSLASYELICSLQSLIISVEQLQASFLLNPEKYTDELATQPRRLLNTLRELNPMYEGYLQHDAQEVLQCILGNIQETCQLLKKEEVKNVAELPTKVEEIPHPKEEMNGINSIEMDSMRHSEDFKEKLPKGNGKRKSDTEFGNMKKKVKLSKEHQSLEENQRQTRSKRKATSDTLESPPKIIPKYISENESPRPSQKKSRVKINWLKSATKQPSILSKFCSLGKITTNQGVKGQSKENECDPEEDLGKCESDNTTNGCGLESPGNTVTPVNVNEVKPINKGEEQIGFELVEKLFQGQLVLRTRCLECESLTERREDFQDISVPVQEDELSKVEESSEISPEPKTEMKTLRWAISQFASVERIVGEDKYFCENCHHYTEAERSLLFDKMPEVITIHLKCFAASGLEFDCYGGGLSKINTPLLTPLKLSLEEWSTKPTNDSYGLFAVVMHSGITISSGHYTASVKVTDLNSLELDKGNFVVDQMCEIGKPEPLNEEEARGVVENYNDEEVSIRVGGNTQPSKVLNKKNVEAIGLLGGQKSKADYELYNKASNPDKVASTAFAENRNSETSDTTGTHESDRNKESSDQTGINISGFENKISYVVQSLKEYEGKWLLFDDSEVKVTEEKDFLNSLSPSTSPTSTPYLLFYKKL
# Sequence (Q8TAF3 whole entry partner): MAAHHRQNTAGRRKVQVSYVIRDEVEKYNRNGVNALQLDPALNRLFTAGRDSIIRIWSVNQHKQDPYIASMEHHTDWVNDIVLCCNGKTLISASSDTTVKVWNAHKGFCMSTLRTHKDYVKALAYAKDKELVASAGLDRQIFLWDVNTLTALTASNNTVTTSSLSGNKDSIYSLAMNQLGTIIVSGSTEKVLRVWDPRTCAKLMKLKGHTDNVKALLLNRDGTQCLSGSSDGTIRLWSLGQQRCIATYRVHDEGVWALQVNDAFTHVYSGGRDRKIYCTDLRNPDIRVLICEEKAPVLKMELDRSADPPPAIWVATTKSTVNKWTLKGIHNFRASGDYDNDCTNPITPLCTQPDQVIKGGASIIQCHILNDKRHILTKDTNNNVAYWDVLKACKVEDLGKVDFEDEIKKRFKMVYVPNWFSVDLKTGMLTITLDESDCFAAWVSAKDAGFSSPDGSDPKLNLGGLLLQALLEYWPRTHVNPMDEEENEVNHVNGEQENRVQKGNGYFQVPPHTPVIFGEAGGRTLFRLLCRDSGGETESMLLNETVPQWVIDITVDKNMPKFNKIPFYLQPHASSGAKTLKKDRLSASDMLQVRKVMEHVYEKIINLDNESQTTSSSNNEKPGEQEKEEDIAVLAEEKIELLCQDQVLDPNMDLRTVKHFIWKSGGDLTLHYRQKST
# procedure.text: USP1/UAF 1 assay (ubiquitin-rhodamine110 fluorometric deubiquitinase assay)
# Assay type: biochemical
# experimental.setup: read-out: Biochemical assay % inhibition @10 μM
property.measured: inhibition at 10 µM

# smiles, inhibition at 10 µM
records = [
    ("COc1ncccc1-c1nc(NCc2ccc(-c3nc(C(F)(F)F)cn3C)cc2)c2[nH]cnc2n1", "> 75%"),
]

Bench note: what inhibition at 10 µM did COc1ncnc(C2CC2)c1-c1nc(OCc2ccc(-c3nc(C(F)(F)F)cn3C)cc2)c2[nH]cnc2n1 show?
> 75%

Bench note: what inhibition at 10 µM did COc1ccncc1-c1nc(NCc2ccc(-c3nc(C(F)(F)F)cn3C)cc2)c2[nH]cnc2n1 show?
> 75%

Bench note: what inhibition at 10 µM did COc1cccc(F)c1-c1nc(NCc2ccc(-c3nc(C(F)(F)F)cn3C)cc2)c2[nH]cnc2n1 show?
> 75%

Bench note: what inhibition at 10 µM did Cn1cc(C(F)(F)F)nc1-c1ccc(CNc2nc(N3CCOCC3)nc3nc[nH]c23)cc1 show?
50 to 75%

Bench note: what inhibition at 10 µM did COc1ncnc(C2CC2)c1-c1nc(NCc2ccc(-c3nc(C(F)(F)F)cn3C)cc2)c2ncn(C)c2n1 show?
> 75%

---

Listed next: entries and their corresponding IC50.
# target.under.test: USP1/UAF1 (Homo sapiens, UniProt O94782)
# procedure.text: USP1/UAF 1 assay (ubiquitin-rhodamine110 fluorometric deubiquitinase assay)
# experimental.setup: 1 nM USP1/UAF1, 150 nM Ub-Rho; read-out: Biochemical assay IC50

# smiles, target.under.test, IC50
measured = [
    ("CC(C)c1ccccc1-c1nc(NCc2ccc(-c3nc(C(F)(F)F)cn3C)cc2)c2cccn2n1", "USP1/UAF1 (Homo sapiens, UniProt O94782)", "< 50 nM"),
    ("CC(C)n1cc(C(F)(F)F)nc1-c1ccc(CNc2nc(-c3c(OC(F)F)ncnc3C3CC3)nc3c2CCC3)cc1", "USP1/UAF1 (Homo sapiens, UniProt O94782)", "< 50 nM"),
    ("COc1ncnc(C2CC2)c1-c1nc(NCc2ccc(-c3nc(C(F)(F)F)cn3C)cc2)c2[nH]cnc2n1", "USP1/UAF1 (Homo sapiens, UniProt O94782)", "50 to 100 nM"),
    ("CC(C)c1ccccc1-c1cc2nccn2c(NCc2ccc(-c3nc(C(F)(F)F)cn3C)cc2)n1", "USP1/UAF1 (Homo sapiens, UniProt O94782)", "100 to 1000 nM"),
]

Bench note: what IC50 did COc1ncnc(C2CC2)c1-c1nc(NCc2ccc(-c3nc(C(F)(F)F)cn3C)cc2)c2c(c1C#N)CCC2 show?
100 to 1000 nM

Bench note: what IC50 did CC(C)c1ccccc1-c1nc2c(c(NCc3ccc(-c4nc(C(F)(F)F)cn4C)cc3)c1C#N)CCC2 show?
100 to 1000 nM

Bench note: what IC50 did COc1ncnc(C2CC2)c1-c1nc(NCc2ccc(-c3nc(C(F)(F)F)cn3C(C)C)cc2)c2cccn2n1 show?
< 50 nM

From: patent US20250163032A1
